# systemUnderTest: recombinantly expressed His-tagged protein corresponding to amino acids 575-869 of human Tyk2 (Homo sapiens, UniProt P29597)
# Sequence (P29597 with tags, fused parts or gaps): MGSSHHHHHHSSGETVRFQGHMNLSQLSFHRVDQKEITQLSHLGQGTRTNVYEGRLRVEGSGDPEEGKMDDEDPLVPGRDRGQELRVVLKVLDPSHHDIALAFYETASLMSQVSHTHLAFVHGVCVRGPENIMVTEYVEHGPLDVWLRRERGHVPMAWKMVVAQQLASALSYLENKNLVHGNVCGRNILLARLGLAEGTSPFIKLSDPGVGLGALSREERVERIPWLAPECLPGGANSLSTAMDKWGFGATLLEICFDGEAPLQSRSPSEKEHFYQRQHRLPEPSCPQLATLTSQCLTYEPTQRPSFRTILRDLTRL
# test: Probe displacement assay (scintillation proximity, tritiated probe)
# testParameters: His-tagged Tyk2 (575-869) 2.5 nM, 40 nM radiolabeled probe, 30 minutes at room temperature
# Experimental: The preparation of radiolabeled probe, (R)—N-(1-(3-(8-methyl-5-(methylamino)-8H-imidazo[4,5-d]thiazolo[5,4-b]pyridin-2-yl)phenyl)ethyl)-2-([^3H]methylsulfonyl)benzamide, was performed as described below: […]
reportedEndpoint: EC50 (nM)

P: CNc1cc(Nc2cc(F)cc(F)c2OC)nn2c(C(=O)NCC(C)(C)O)cnc12
Q: CNc1cc(Nc2cccnc2-n2cccn2)nn2c(C(=O)NC(C)CO)cnc12 (centres unmarked)
Query: Hi! Which is lower in terms of EC50, the first one P or the second one Q ? # answer = label of selected item
Response: P
(P: 7.26 nM, Q: 40 nM)
